Numbers sourced from the supplement of paper PMC9112550.

Would you kindly list shrunken log2 fold change for each of these sequences?
- System: Escherichia coli TOP10;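 also: peptides expressed intracellularly from a pBAD plasmid library in pooled LB shake-flask culture, induced with 0.3% L-arabinose, DNA abundance read by NGS, three biological replicates, DESeq2 with apeglm shrinkage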
- assay remarks: shrunken log2 fold change of peptide-encoding DNA abundance (4.5 h post-induction vs induction); higher = less antimicrobial activity (less host growth inhibition)
- condition description: time post-induction: 4.5 h; library: site-saturation at positions 5, 18, 19, 20
Please reply with the number alone, leaving off any unit.

Supply shrunken log2 fold change value. Item: `RRIRQRPPRLPRPRPRPVKIPRP`
0.352

Supply shrunken log2 fold change value. Item: `RRIRYRPPRLPRPRPRPWFPPRP`
-0.523

Supply shrunken log2 fold change value. Item: `RRIRERPPRLPRPRPRPNPCPRP`
-0.226

Supply shrunken log2 fold change value. Item: `RRIRMRPPRLPRPRPRPEVTPRP`
0.053

Supply shrunken log2 fold change value. Item: `RRIRLRPPRLPRPRPRPVRPPRP`
-0.0457

Supply shrunken log2 fold change value. Item: `RRIRSRPPRLPRPRPRPHNAPRP`
-0.197

Supply shrunken log2 fold change value. Item: `RRIRWRPPRLPRPRPRPWFAPRP`
0.135

Supply shrunken log2 fold change value. Item: `RRIRWRPPRLPRPRPRPMIQPRP`
-0.000914

Supply shrunken log2 fold change value. Item: `RRIRLRPPRLPRPRPRPIWSPRP`
-0.256

Supply shrunken log2 fold change value. Item: `RRIRFRPPRLPRPRPRPMKLPRP`
-0.0666

Supply shrunken log2 fold change value. Item: `RRIRMRPPRLPRPRPRPQTWPRP`
0.39

Supply shrunken log2 fold change value. Item: `RRIRARPPRLPRPRPRPWHTPRP`
-0.219

Supply shrunken log2 fold change value. Item: `RRIRQRPPRLPRPRPRPACCPRP`
0.162

Supply shrunken log2 fold change value. Item: `RRIRRRPPRLPRPRPRPLAPPRP`
0.399

Supply shrunken log2 fold change value. Item: `RRIRVRPPRLPRPRPRPPFKPRP`
0.163

Supply shrunken log2 fold change value. Item: `RRIRKRPPRLPRPRPRPSVHPRP`
-0.118

Supply shrunken log2 fold change value. Item: `RRIRKRPPRLPRPRPRPGWSPRP`
3

Supply shrunken log2 fold change value. Item: `RRIRKRPPRLPRPRPRPTQEPRP`
0.294

Supply shrunken log2 fold change value. Item: `RRIRNRPPRLPRPRPRPINRPRP`
-0.0423

Supply shrunken log2 fold change value. Item: `RRIRCRPPRLPRPRPRPCIAPRP`
-0.11

Supply shrunken log2 fold change value. Item: `RRIRNRPPRLPRPRPRPSVLPRP`
0.0978

Supply shrunken log2 fold change value. Item: `RRIRTRPPRLPRPRPRPNEDPRP`
-0.0528

Supply shrunken log2 fold change value. Item: `RRIRNRPPRLPRPRPRPAWNPRP`
-0.0495

Supply shrunken log2 fold change value. Item: `RRIRMRPPRLPRPRPRPQESPRP`
0.55

Supply shrunken log2 fold change value. Item: `RRIRPRPPRLPRPRPRPDILPRP`
-0.51

Supply shrunken log2 fold change value. Item: `RRIRYRPPRLPRPRPRPGEFPRP`
-0.35

Supply shrunken log2 fold change value. Item: `RRIRIRPPRLPRPRPRPSCMPRP`
-0.637

Supply shrunken log2 fold change value. Item: `RRIRRRPPRLPRPRPRPPYMPRP`
0.315

Supply shrunken log2 fold change value. Item: `RRIRFRPPRLPRPRPRPKQAPRP`
-0.0316

Supply shrunken log2 fold change value. Item: `RRIRFRPPRLPRPRPRPYYMPRP`
-0.505

Supply shrunken log2 fold change value. Item: `RRIRERPPRLPRPRPRPCGQPRP`
-0.0982

Supply shrunken log2 fold change value. Item: `RRIRTRPPRLPRPRPRPRMCPRP`
0.00183
